Entry source: paper PMC5626019

Target: purified HLA A*11:01 molecules (Homo sapiens, UniProt P04439, A114D/D185E/E176A/F33Y/L180Q/S129P/T187R)
Assay: HLA class I competition binding assay
No end group written: not given here.
quantity measured: IC50 (nM)
The reply should be a number in nM, with the unit left off.

## Input Any idea what IC50 was measured for VLYVGSKTK ?
## Output 161
